- Test system: FXR:RXRa (NR concentration 270 nM, RXRa partner concentration 90 nM)
- protocol-details: PBM binding z-score (relative to random genomic background probes); higher = stronger binding; sequences stand for … in GC…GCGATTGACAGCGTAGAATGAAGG
Use 1 as the dividing line for PBM binding z-score, with the line itself on the True side and lower values as False.

Input line: Hi, just wondering whether `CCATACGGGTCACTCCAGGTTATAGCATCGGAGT` shows PBM binding z-score of 1 or higher.
Output line: True

Input line: Okay, and `CCGACTGGGGCGGAAAGGTTACCATACCATCCGG` ?
Output line: False

* * *

- Tested on: RXRa homodimer (NR concentration 180 nM)
- protocol-details: PBM binding z-score (relative to random genomic background probes); higher = stronger binding; sequences stand for … in GC…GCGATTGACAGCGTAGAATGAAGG
quantity-measured: PBM binding z-score
# respond with the number and nothing more

The cases that follow already have their PBM binding z-score on record.
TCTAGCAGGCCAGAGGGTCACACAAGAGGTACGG ... 4
CCTTGCAGGCCAGGGTCACTCAAGCATTTCGCTT ... 3.43
AATGCAGGGTCATCGTAGGCCAGAGTACGCACAG ... 6.16
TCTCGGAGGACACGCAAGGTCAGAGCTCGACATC ... 2.01
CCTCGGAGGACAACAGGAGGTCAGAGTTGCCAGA ... 2
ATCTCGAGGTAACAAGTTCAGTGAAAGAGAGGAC ... 1.15
CTCGAAAGGTCGTGCCCAGGTGAGTATACCAAAC ... 5.09
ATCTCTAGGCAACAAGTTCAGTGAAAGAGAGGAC ... 0.308

Input line: I am curious: what PBM binding z-score value has been reported for `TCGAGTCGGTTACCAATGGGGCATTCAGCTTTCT` ?
Output line: -0.284

Input line: Another sequence to look at: `CCTCGGAGGACAGAAGGTCCGAGCTGTCCGCTTT`
Output line: -1.02

Input line: Note, next up: `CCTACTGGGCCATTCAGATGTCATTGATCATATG`
Output line: -0.34

Input line: What would you report for `GCGACTGGTGCAAAGCAGGTTACCATAAGGTTGG` ?
Output line: 0.0236

Input line: Also `CATCCAAGGTCAATGCTAGGTCAGTGAAAGCATT` , if possible.
Output line: 5.4

Input line: Next sequence up: `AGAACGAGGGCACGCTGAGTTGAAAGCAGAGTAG`
Output line: 1.46

* * *

- Test system: THRa homodimer (NR concentration 90 nM)
- protocol-details: PBM binding z-score (relative to random genomic background probes); higher = stronger binding; sequences stand for … in GC…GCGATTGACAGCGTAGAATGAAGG
quantity-measured: PBM binding z-score
Reply with the value as a number alone.

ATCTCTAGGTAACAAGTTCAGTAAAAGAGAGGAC ... 1.12

Input line: Need PBM binding z-score of `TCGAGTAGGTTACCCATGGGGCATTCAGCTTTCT` , thanks.
Output line: -0.507

* * *

The entries below are paired with their reported PBM binding z-score.
- Test system: PPARg DBDmut:RXRa IVT, anti-PPARg (DBD mutation: PPARg1 K132A/R137A, NR concentration 270 nM, RXRa partner concentration 90 nM)
- protocol-details: PBM binding z-score (relative to random genomic background probes); higher = stronger binding; sequences stand for … in GC…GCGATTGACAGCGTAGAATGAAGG
# answer = number (no unit)

Use the examples below as a reference point.
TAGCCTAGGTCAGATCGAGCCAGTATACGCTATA ... -0.253
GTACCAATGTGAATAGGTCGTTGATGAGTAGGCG ... -0.359
AGAAAGAGGTTAAGATCAGGGAAACAGAATACAT ... 1.97

Input line: Query: PBM binding z-score; subject: `TCAGACAGGTGAAGGAAACTCAGGTACGCAGTCG`
Output line: 0.181

Input line: Entry `ACTAGCAGGCCAAGTTTGGGTCACTCATACAAAG` please
Output line: -0.419

Input line: How about `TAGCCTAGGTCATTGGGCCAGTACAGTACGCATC` ?
Output line: -0.0279

Input line: # repeat for `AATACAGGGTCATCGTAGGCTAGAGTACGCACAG`
Output line: 1.38

Input line: Would you mind doing `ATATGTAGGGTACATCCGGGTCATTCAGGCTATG` as well?
Output line: 2.33

Input line: Proceed to `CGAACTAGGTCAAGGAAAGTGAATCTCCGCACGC`
Output line: 1.18

Input line: Likewise for `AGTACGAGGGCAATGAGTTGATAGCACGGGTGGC` ?
Output line: 0.233

Input line: Likewise for `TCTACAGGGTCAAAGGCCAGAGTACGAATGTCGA` ?
Output line: 0.545

Input line: Another sequence to check: `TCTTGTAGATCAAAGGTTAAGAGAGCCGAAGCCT`
Output line: 0.236
